- experimental.system: T1, recombinant human CD3ε-CD3δ heterodimeric protein (CD3εδ) (Homo sapiens)
- T1 construct: human CD3ε of the recombinant CD3εδ heterodimer; human CD3δ of the recombinant CD3εδ heterodimer; source: in-house prepared
- T1 chain 1: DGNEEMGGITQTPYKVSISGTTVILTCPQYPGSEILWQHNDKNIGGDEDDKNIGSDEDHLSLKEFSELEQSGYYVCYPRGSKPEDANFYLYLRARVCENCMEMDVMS
- T1 chain 2: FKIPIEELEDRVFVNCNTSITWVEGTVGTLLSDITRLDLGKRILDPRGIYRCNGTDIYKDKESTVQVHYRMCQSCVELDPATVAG
- assay.text: SPR; Biacore T200, 37 °C, pH 7.4, PB-P+; antibody captured (630 RU) by anti-mouse IgG (Fc) antibody on a CM4 chip; human CD3εδ as analyte, 18.8-19,200 nmol/L (mHIT3a, mOKT3) or 75-76,800 nmol/L (m12F6); steady state model
- cond: both partners purified
metric: Kd (µM)
Express the result in µM but write the number alone.

mHIT3a mIgG1 V1+C19, homodimeric antibody with FAST-Ig V1+C19 mutations (antibody, V domains shown, VH of mHIT3a; mouse IgG1 (mIgG1) heavy chain constant region; numbers count on: Eu numbering; VL of mHIT3a; mouse kappa light chain constant region (CL); numbers count on: Kabat numbering; Whole IgG of one HC and one LC; also called anti-CD3; H2L2H2L2; source: Expi293F, transiently expressed, purified (Ab-Capcher MAG2 or MonoSpin ProG); copies: 2 + 2) VH: QVQLQESGAELARPGASVKMSCKASGYTFTRYTMHWVKERPGQGLEWIGYINPSRGYTNYNQKFKDKATLTTDKSSSTAYMELTRLTSEDSAVYYCARYYDDHYCLDYWGQGTTVTVSS VL: DIELTQSPAIMSASPGEKVTMTCSASSSVSYMNWYQKKSGTSPKRWIYDTSKLASGVPARFSGSGSGTSYSLTISGMEAEDAATYYCQQWSSNPFTFGSGTKLELK; 8.32
mHIT3a mIgG2a V1+C19, homodimeric antibody with FAST-Ig V1+C19 mutations (antibody, V domains shown, VH of mHIT3a; mouse IgG2a (mIgG2a) heavy chain constant region; numbers count on: Eu numbering; VL of mHIT3a; mouse kappa light chain constant region (CL); numbers count on: Kabat numbering; Whole IgG of one HC and one LC; also called anti-CD3; H2L2H2L2; source: Expi293F, transiently expressed, purified (Ab-Capcher MAG2, MonoSpin ProA or MonoSpin ProG); copies: 2 + 2) VH: QVQLQESGAELARPGASVKMSCKASGYTFTRYTMHWVKERPGQGLEWIGYINPSRGYTNYNQKFKDKATLTTDKSSSTAYMELTRLTSEDSAVYYCARYYDDHYCLDYWGQGTTVTVSS VL: DIELTQSPAIMSASPGEKVTMTCSASSSVSYMNWYQKKSGTSPKRWIYDTSKLASGVPARFSGSGSGTSYSLTISGMEAEDAATYYCQQWSSNPFTFGSGTKLELK; 10.4

Note Kd for the binder shown: m12F6 mIgG1 V1+C19, homodimeric antibody with FAST-Ig V1+C19 mutations (antibody, V domains shown, VH of m12F6; mouse IgG1 (mIgG1) heavy chain constant region; numbers count on: Eu numbering; VL of m12F6; mouse kappa light chain constant region (CL); numbers count on: Kabat numbering; Whole IgG of one HC and one LC; also called anti-CD3; H2L2H2L2; source: Expi293F, transiently expressed, purified (Ab-Capcher MAG2 or MonoSpin ProG); copies: 2 + 2) VH: QVQLQQSGAELARPGASVKMSCKASGYTFTSYTMHWVKERPGQGLEWIGYINPSSGYTKYNQKFKDKATLTADKSSSTAYMQLSSLTSEDSAVYYCARWQDYDVYFDYWGQGTTLTVSS VL: QIVLSQSPAILSASPGEKVTMTCRASSSVSYMHWYQKKPGSSPKPWIYATSNLASGVPARFSGSGSGTSYSLTISRVEAEDAATYYCQQWSSNPPTFGGGTKLETK
16.1

Note Kd for the binder shown: mHIT3a mIgG1, homodimeric antibody without FAST-Ig mutations (antibody, V domains shown, VH of the original mouse antibody mHIT3a; mouse IgG1 (mIgG1) heavy chain constant region; numbers count on: Eu numbering; VL of the original mouse antibody mHIT3a; mouse kappa light chain constant region (CL); Whole IgG of one HC and one LC; also called anti-CD3; H2L2H2L2; source: Expi293F, transiently expressed, purified (Ab-Capcher MAG2 or MonoSpin ProG); copies: 2 + 2) VH: QVQLQESGAELARPGASVKMSCKASGYTFTRYTMHWVKQRPGQGLEWIGYINPSRGYTNYNQKFKDKATLTTDKSSSTAYMELTRLTSEDSAVYYCARYYDDHYCLDYWGQGTTVTVSS VL: DIELTQSPAIMSASPGEKVTMTCSASSSVSYMNWYQQKSGTSPKRWIYDTSKLASGVPARFSGSGSGTSYSLTISGMEAEDAATYYCQQWSSNPFTFGSGTKLELK
7.54

Note Kd for the binder shown: mHIT3a mIgG2a, homodimeric antibody without FAST-Ig mutations (antibody, V domains shown, VH of the original mouse antibody mHIT3a; mouse IgG2a (mIgG2a) heavy chain constant region; numbers count on: Eu numbering; VL of the original mouse antibody mHIT3a; mouse kappa light chain constant region (CL); Whole IgG of one HC and one LC; also called anti-CD3; H2L2H2L2; source: Expi293F, transiently expressed, purified (Ab-Capcher MAG2, MonoSpin ProA or MonoSpin ProG); copies: 2 + 2) VH: QVQLQESGAELARPGASVKMSCKASGYTFTRYTMHWVKQRPGQGLEWIGYINPSRGYTNYNQKFKDKATLTTDKSSSTAYMELTRLTSEDSAVYYCARYYDDHYCLDYWGQGTTVTVSS VL: DIELTQSPAIMSASPGEKVTMTCSASSSVSYMNWYQQKSGTSPKRWIYDTSKLASGVPARFSGSGSGTSYSLTISGMEAEDAATYYCQQWSSNPFTFGSGTKLELK
10.4
